B1: SLC35F2 (parent)
chain: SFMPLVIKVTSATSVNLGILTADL

Variants of: B1
TEST SUMMARY: protein stability index of a GFP-peptide fusion (GPS, HEK-293T) (PSI 1-6); higher = more stable;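 further: lentivirally expressed fusions sorted by FACS into six bins by GFP to DsRed ratio, PSI derived from sequencing read proportions per bin multiplied by bin number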
MEASUREMENT CONTEXT: c terminus: a fixed tail appended
Label rule, in plain words: protein stability index of 3 and up is MET, under 3 is NOT MET.

These solved cases illustrate the format of a correct answer.
sequence_entry="SFMPLVIKVTSATSVNLGILTTDL [A22T]" label_value=MET
sequence_entry="SFMPLVIKVTSATSVNLGIDTADL [L20D]" label_value="NOT MET"

Given the entry SFMPLVIWVTSATSVNLGILTADL [K8W] , answer whether its protein stability index meets or surpasses 3.
NOT MET

Given the entry SFMVLVIKVTSATSVNLGILTADL [P4V] , answer whether its protein stability index meets or surpasses 3.
MET

Given the entry SFMPLVIKVTSATSVNLGILTALL [D23L] , answer whether its protein stability index meets or surpasses 3.
MET
